target_under_test: Glucocorticoid receptor (Homo sapiens)
method_summary: GR-EFC Redistribution (AID 451); further: potency means the concentration at half of the fitted maximal effect
condition_context: CHO-K1 GR-EFC translocation, beta-gal luminescence, 2 h
Active and inactive are the calls of the source. The call rests on the fitted dose curve.
Kindly supply the reported Potency values for the records listed here.

Query :: Value wanted: Potency (Glucocorticoid receptor (Homo sapiens)) of entry O=C(O)C(=Cc1ccnc2ccccc12)C(=O)O
Result :: > 9.22 µM (inactive)

Query :: Would you kindly repeat that for OCCNc1ncnc2c1ncn2[C@@H]1O[C@@H](CO)[C@H](O)[C@@H]1O ?
Result :: > 9.22 µM (inactive)

Query :: Would you kindly repeat that for O=C(O)CCSCc1ccc(I)cc1 ?
Result :: > 9.22 µM (inactive)

Query :: Would you kindly repeat that for N.N.N.N.N.N.N.N.N.N.N.N.N.N.O.O.[Ru].[Ru].[Ru] ?
Result :: > 46 µM (inactive)

Query :: Would you kindly repeat that for Nc1ncnc2c1ncn2[C@@H]1CCCO1 ?
Result :: > 46 µM (inactive)

Query :: Would you kindly repeat that for O=c1c(CCc2ccccc2)nc2cnc(Oc3ccccc3)nc2n1C[C@H]1CCCO1 ?
Result :: > 46 µM (inactive)

Query :: Would you kindly repeat that for Clc1cc2c(c(CSC3=NCN(CC4CC4)CN3)c1)OCOC2 ?
Result :: > 9.22 µM (inactive)

Query :: Would you kindly repeat that for CC1(C)S[C@@H]2[C@H](NC(=O)Cc3ccccc3)C(=O)N2[C@@H]1C(=O)O ?
Result :: > 9.22 µM (inactive)

Query :: Would you kindly repeat that for COc1ccc(N(CC(=O)O)N=O)cc1 ?
Result :: > 9.22 µM (inactive)

Query :: Would you kindly repeat that for CC(C)[C@@H](C(=O)O)N1C(=O)c2ccccc2C1=O ?
Result :: > 9.22 µM (inactive)

Query :: Would you kindly repeat that for NS(=O)(=O)c1cc2c(cc1Cl)=NC(CCC(=O)O)=NS=2(=O)O ?
Result :: > 9.22 µM (inactive)

Query :: Would you kindly repeat that for C[C@@H]1O[C@@H](O)[C@@H](O)[C@H](O)[C@H]1O ?
Result :: > 9.22 µM (inactive)

Query :: Would you kindly repeat that for CSc1nc2cc(S(=O)(=O)N3CCCCC3)ccc2s1 ?
Result :: > 9.22 µM (inactive)

Query :: Would you kindly repeat that for O=C(O)c1ccc(/C=N\N=C2c3ccccc3-c3ccccc32)cc1 ?
Result :: > 9.22 µM (inactive)

Query :: Would you kindly repeat that for CS(=O)(=O)Nc1cccc(-c2nc(NCc3cccnc3)c3ccccc3n2)c1 ?
Result :: > 46 µM (inactive)

Query :: Would you kindly repeat that for CCNc1ncc2nc(CCc3ccccc3)c(=O)n(C)c2n1 ?
Result :: > 46 µM (inactive)

Query :: Would you kindly repeat that for FC(F)(F)c1cc(NC(=S)N2c3ccccc3-n3cccc3[C@H]2c2cccnc2)cc(C(F)(F)F)c1 ?
Result :: > 9.22 µM (inactive)

Query :: Would you kindly repeat that for OCCCNCc1ccccn1 ?
Result :: > 9.22 µM (inactive)

Query :: Would you kindly repeat that for Cc1nc(N)nc2ccccc12 ?
Result :: > 9.22 µM (inactive)

Query :: Would you kindly repeat that for COc1cc([C@@H](O)CO)ccc1OS(=O)(=O)O ?
Result :: > 46 µM (inactive)

Query :: Would you kindly repeat that for c1ccc2c(c1)c1ccccc1n2Cn1c2ccccc2c2ccccc21 ?
Result :: > 9.22 µM (inactive)

Query :: Would you kindly repeat that for O=C(O)[C@@H](Cc1c[nH]c2ccccc12)C(=O)NO ?
Result :: > 9.22 µM (inactive)
